All values here come from patent US10202367B2.

Here, each record is paired with measured Sol. data.
- test_summary: Aqueous solubility in PBS
- Format: physicochemical

These solved cases illustrate the format of a correct answer.
| molecule | Sol. |
| --- | --- |
| Cc1ccccc1-c1nc(CN2CCC(C(=O)NCCCN3C[C@H](C)C[C@H](C)C3)CC2)c(C)o1 [Compound 28] | 54.8 µg/mL |
| Cc1ccccc1-c1nc(CN2CCC(C(=O)NCCCN3C[C@H](C)C[C@H](C)C3)CC2)c(C)o1 [Compound 63] | 54.8 µg/mL |

Data request: Consider the molecule Cc1ccccc1-c1nc(CN2CCC(C(=O)NCCCN3C[C@H](C)C[C@H](C)C3)CC2)c(C)o1 [Compound 27] and give its measured Sol..
Data returned: >69.0 µg/mL

Data request: Consider the molecule Cc1ccccc1-c1nc(CN2CCC(C(=O)NCCCN3CCC(C)(C)CC3)CC2)c(C)o1 [Compound 50] and give its measured Sol..
Data returned: >69.0 µg/mL

Data request: Consider the molecule Cc1ccccc1-c1nc(CN2CCC(C(=O)NCCCN3CCCCC3)CC2)c(C)o1 [Compound 9] and give its measured Sol..
Data returned: >65.0 µg/mL

Data request: Consider the molecule COc1cccc(F)c1-c1nc(CN2CCC(C(=O)NCCCN3C[C@H](C)C[C@H](C)C3)CC2)c(C)o1 [Compound 38] and give its measured Sol..
Data returned: >74.0 µg/mL

Data request: Consider the molecule COc1cccc(Cl)c1-c1nc(CN2CCC(C(=O)NCCCN3C[C@H](C)C[C@H](C)C3)CC2)c(C)o1 [Compound 42] and give its measured Sol..
Data returned: >76.0 µg/mL

Data request: Consider the molecule Cc1oc(-c2c(Cl)cccc2Br)nc1CN1CCC(C(=O)NCCCN2C[C@H](C)C[C@H](C)C2)CC1 [Compound 41] and give its measured Sol..
Data returned: >83.0 µg/mL

====

Here, each record is paired with measured Sol. data.
- test_summary: Aqueous solubility in PBS
- Assay type: physicochemical

These solved cases illustrate the format of a correct answer.
| compound | Sol. |
| --- | --- |
| Cc1ccccc1-c1nc(CN2CCC(C(=O)NCCCN3CCC(C(C)C)CC3)CC2)c(C)o1 | >71.0 µg/mL |
| Cc1cccc(Cl)c1-c1nc(CN2CCC(C(=O)NCCCN3CCCC(C)C3)CC2)c(C)o1 (stereo not shown) | 52.6 µg/mL |
| Cc1ccccc1-c1nc(CN2CCC(C(=O)NCCCN3CCC(C)CC3)CC2)c(C)o1 | >67.0 µg/mL |

// next item, Sol. requested
Data request: Consider the compound Cc1ccccc1-c1nc(CN2CCC(C(=O)NCCCCN3C[C@H](C)C[C@H](C)C3)CC2)c(C)o1 and give its measured Sol..
Data returned: >71.0 µg/mL

====

- test_summary: Aqueous solubility in PBS
- Assay type: physicochemical
quantity: Sol.

| molecule | Sol. |
| --- | --- |
| CCN(CC)CCCCNC(=O)C1CCN(Cc2nc(-c3cc(OC)cc(OC)c3)oc2C)CC1 [Compound 8] | >72.0 µg/mL |
| Cc1cccc(C)c1-c1nc(CN2CCC(C(=O)NCCCN3C[C@H](C)C[C@H](C)C3)CC2)c(C)o1 [Compound 23] | 55.9 µg/mL |
| Cc1ccccc1-c1nc(CN2CCC(C(=O)NCCCN3C[C@H](C)C[C@H](C)C3)CC2)c(C)o1 [Compound 29] | >69.0 µg/mL |
| Cc1ccccc1-c1nc(CN2CCC(C(=O)NCCCN3C[C@H](C)C[C@H](C)C3)CC2)c(C)o1 [Compound 64] | >69.0 µg/mL |

Data request: Consider the molecule Cc1ccccc1-c1nc(CN2CCC(C(=O)NCCCN3C[C@H](C)C[C@H](C)C3)CC2)c(C)o1 [Compound 25] and give its measured Sol..
Data returned: >69.0 µg/mL

Data request: Consider the molecule Cc1cc(-c2nc(CN3CCC(C(=O)NCCCN4C[C@H](C)C[C@H](C)C4)CC3)co2)ccc1F [Compound 70] and give its measured Sol..
Data returned: >70 µg/mL
